This collection of values is drawn from patent US20250388666A1.

- system name: T1, human GST-CEACAM1 (human, UniProt P13688 35-141, limits assumed)
- T1 construct: printed both as GST-CEACAM1 and CEACAM1-GST; also called human CEACAM1-GST protein; hCEACAM1-GST; not shown: GST tag
- T1 sequence: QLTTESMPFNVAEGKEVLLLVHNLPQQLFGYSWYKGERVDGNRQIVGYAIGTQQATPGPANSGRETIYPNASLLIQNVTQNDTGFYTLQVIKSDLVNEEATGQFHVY
- assay explanation: competition ELISA vs murine parent antibody
reported property: average relative IC50 (normalized to chimeric antibody)

binder="VH1/Vκ2 (antibody, V domains shown) VH: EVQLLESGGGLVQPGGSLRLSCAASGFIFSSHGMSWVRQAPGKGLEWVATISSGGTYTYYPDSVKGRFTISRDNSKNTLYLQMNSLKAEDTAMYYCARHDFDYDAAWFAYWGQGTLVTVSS VL: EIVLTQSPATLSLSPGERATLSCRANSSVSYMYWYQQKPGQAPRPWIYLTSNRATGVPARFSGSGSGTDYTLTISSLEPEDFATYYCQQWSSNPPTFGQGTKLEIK" test_result="1.3 ratio"
binder="VH0/Vκ1 (antibody, V domains shown) VH: EVQLVESGGDLVKPGGSLKLACAASGFIFSSHGMSWVRQTPDKRLEWVATISSGGTYTYYPDSVKGRFTISRDNDKNTLYLQMNSLKSEDTAMYYCARHDFDYDAAWFAYWGQGTLVTVSS VL: QIVLTQSPALLSLSPGERATMSCSANSSVSYMYWYRQKPGQAPKPWIYLTSNLASGVPARFSGSGSGTDYTLTISSLEAEDFATYYCQQWSSNPPTFGQGTKLEIK" test_result="2.5 ratio"
